Biological target: Human immunodeficiency virus type 1 protease (Human immunodeficiency virus 1)
endpoint-label: Ki (nM)

These solved cases illustrate the format of a correct answer.
C=CCC1(N(CC(C)C)C[C@@H](O)[C@H](Cc2ccccc2)NC(=O)O[C@H]2CO[C@H]3OCC[C@H]32)C(=O)Nc2ccccc21 (stereo in doubt; 14b)	7
COc1ccc2c(c1)C(C)(N(CC(C)C)C[C@@H](O)[C@H](Cc1ccccc1)NC(=O)O[C@H]1CO[C@H]3OCC[C@H]31)C(=O)N2 (stereo in doubt; 15b)	130
CC(C)CN(C[C@@H](O)[C@H](Cc1ccccc1)NC(=O)O[C@H]1CO[C@H]2OCC[C@H]21)C1(C)C(=O)N(C)c2ccccc21 (stereo in doubt; 16b)	60
CC(C)CCN(C[C@@H](O)[C@H](Cc1ccccc1)NC(=O)O[C@H]1CO[C@H]2OCC[C@H]21)C1(C)C(=O)Nc2ccccc21 (stereo partly specified)	7

(I) CC(C)CN(C[C@@H](O)[C@H](Cc1ccccc1)NC(=O)O[C@H]1CO[C@H]2OCC[C@H]21)C1(C)C(=O)Nc2ccccc21 (stereo in doubt; 3b)
(II) CC(C)CN(C[C@@H](O)[C@H](Cc1ccccc1)NC(=O)O[C@H]1CO[C@H]2OCC[C@H]21)C1(C)C(=O)Nc2ccccc21 (stereo in doubt; 3a)
stdin: I'm curious, which of these has a smaller Ki number: I or II ? Identify your selection by its label.
stdout: I
(I: 3 nM, II: 6 nM)

---

Target: Human immunodeficiency virus type 1 protease (Human immunodeficiency virus 1)
pKi: −log10 of the molar value.
endpoint-label: pKi

These solved cases illustrate the format of a correct answer.
C=CCN(C[C@@H](O)[C@H](Cc1ccccc1)NC(=O)O[C@H]1CO[C@H]2OCC[C@H]21)C1(CC=C)C(=O)Nc2ccccc21 (some centres not stated)	8.30
C=CCCC1(N(CC=C)C[C@@H](O)[C@H](Cc2ccccc2)NC(=O)O[C@H]2CO[C@H]3OCC[C@H]32)C(=O)Nc2ccccc21 (some centres not stated)	7.33

(P) COc1ccc2c(c1)C(C)(N(CC(C)C)C[C@@H](O)[C@H](Cc1ccccc1)NC(=O)O[C@H]1CO[C@H]3OCC[C@H]31)C(=O)N2 (stereo in doubt; 15a)
(Q) CC(C)CN(C[C@@H](O)[C@H](Cc1ccccc1)NC(=O)O[C@H]1CO[C@H]2OCC[C@H]21)C1(C)C(=O)N(C)c2ccccc21 (stereo in doubt; 16a)
stdin: I'm curious, which of these has a smaller pKi number: P or Q ? Identify your selection by its label.
stdout: P
(P: 6.99, Q: 7.38)

---

The following compounds each carry a recorded Ki for UniProt:Q72874.
Just the number please, in nM, no unit attached.

These solved cases illustrate the format of a correct answer.
CC1(N(Cc2ccccc2)C[C@@H](O)[C@H](Cc2ccccc2)NC(=O)O[C@H]2CO[C@H]3OCC[C@H]32)C(=O)Nc2ccccc21 (stereo partly drawn)	26
C=CCC1(N(CC(C)C)C[C@@H](O)[C@H](Cc2ccccc2)NC(=O)O[C@H]2CO[C@H]3OCC[C@H]32)C(=O)Nc2ccccc21 (stereo in doubt; 14a)	2

Moving on to another compound below.
stdin: Write down Ki measured for item O=C(N[C@@H](Cc1ccccc1)[C@H](O)CN1CC=CCC12C(=O)Nc1ccccc12)O[C@H]1CO[C@H]2OCC[C@H]21 (stereo partly drawn)
stdout: 126

---

Tested on: MT2
Assay: Antiviral activity against HIV1 IIIB strain in MT2 cells
Type: functional, cell-based
Settings: Homo sapiens, IIIB, MT2
pIC50: −log10 of the molar value.
endpoint-label: pIC50

(1) CC(C)CN(C[C@@H](O)[C@H](Cc1ccccc1)NC(=O)O[C@H]1CO[C@H]2OCC[C@H]21)C1(C)C(=O)Nc2ccccc21 (stereo in doubt; 3a)
(2) CC(C)(C)NC(=O)[C@@H]1C[C@@H]2CCCC[C@@H]2CN1C[C@@H](O)[C@H](Cc1ccccc1)NC(=O)[C@H](CC(N)=O)NC(=O)c1ccc2ccccc2n1
stdin: Among 1 and 2 , which shows a numerically higher pIC50 result? Identify your selection by its label.
stdout: 2

---

Target: Human immunodeficiency virus type 1 protease (Human immunodeficiency virus 1, UniProt Q72874)
pKi: −log10 of the molar value.
endpoint-label: pKi

These solved cases illustrate the format of a correct answer.
O=C(N[C@@H](Cc1ccccc1)[C@H](O)CN1CCCCCC12C(=O)Nc1ccccc12)O[C@H]1CO[C@H]2OCC[C@H]21 (stereo partly drawn)	< 6.00
O=C(N[C@@H](Cc1ccccc1)[C@H](O)CN1CC=CCCC12C(=O)Nc1ccccc12)O[C@H]1CO[C@H]2OCC[C@H]21 (stereo partly drawn)	< 6.00

stdin: Write down pKi measured for item O=C(N[C@@H](Cc1ccccc1)[C@H](O)CN1CCCCC12C(=O)Nc1ccccc12)O[C@H]1CO[C@H]2OCC[C@H]21 (stereo partly drawn)
stdout: < 6.00
